Target Under Test: neuronal nicotinic cholinergic receptor
Test Description: [3H]-MCC binding to nicotinic receptors in whole rat brain membranes
Cond: Table 3; [3H]-MCC, rat brain membranes, 4° C.; read-out: Nic Ki (binding to the nicotinic receptor)
Ki for assorted compounds
Readout Type: Ki

Compound | Endpoint Value
CN1C(=O)N(c2ccccc2)C2(CCNCC2)C1=O.Cl [Example 3, hydrochloride] | > 100 µM
CN1CCC2(CC1)C(=O)N(C)C(=O)N2c1ccccc1 | > 100 µM

----------
Target Under Test: M1 muscarinic receptor (Rattus norvegicus)
Construct: from tissue; host or cells: adult rat fronto-parietal cortex membranes (homogenate)
Sequence (P08482 1-460): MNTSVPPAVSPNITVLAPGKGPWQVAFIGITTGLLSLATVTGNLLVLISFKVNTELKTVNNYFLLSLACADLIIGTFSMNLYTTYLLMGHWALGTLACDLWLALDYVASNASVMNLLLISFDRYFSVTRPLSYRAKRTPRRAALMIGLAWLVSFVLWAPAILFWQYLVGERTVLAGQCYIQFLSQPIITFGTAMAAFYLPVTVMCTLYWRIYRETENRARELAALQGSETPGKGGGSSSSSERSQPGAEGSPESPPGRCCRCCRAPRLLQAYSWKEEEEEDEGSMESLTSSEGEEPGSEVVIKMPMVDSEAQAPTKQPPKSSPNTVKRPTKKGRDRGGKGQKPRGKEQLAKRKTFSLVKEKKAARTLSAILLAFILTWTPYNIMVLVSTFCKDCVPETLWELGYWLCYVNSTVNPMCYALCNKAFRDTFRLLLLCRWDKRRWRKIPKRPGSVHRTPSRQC
Test Description: Competition with [3H]pirenzepine at cortical M1 muscarinic receptors
Format: binding
Cond: Table 3; read-out: M1 Ki

Compound | Target Under Test | Value Prefix | Ki (µM)
CN1C(=O)N(c2ccccc2)C2(CCNCC2)C1=O.Cl [Example 3, hydrochloride] | M1 muscarinic receptor (Rattus norvegicus) | > | 100
CN1CCC2(CC1)C(=O)N(C)C(=O)N2c1ccccc1 [Example 4] | M1 muscarinic receptor (Rattus norvegicus) | = | 28
